# System: MDA-MB-468 triple negative breast cancer cells
# assay info: Cell viability (CellTiter-Blue), epithelial and mesenchymal (EGF-induced) states, FIG. 1C
# Type: cell-based, human
# condition context: Homo sapiens, MDA-MB-468, 72 h, MDA-MB-468 epithelial/mesenchymal (EGF) states, 2nd of four values listed, condition not named
Structures can show the parent of a compound that is named as a salt.
property measured: pIC50
In plain terms, pIC50 is the concentration in mol/L turned into minus its base-10 logarithm.

Please give the measured pIC50 for this molecule: CN(C)C(=N)NC(=N)N [metformin, 1,1-Dimethylbiguanide hydrochloride]
1.92

----------
# System: triple negative human breast cancer cells and circulating tumor cells (CTC) from patients with colorectal cancer
# assay info: Cell viability (CellTiter-Blue), dose response of cancer cells, FIG. 1B
# Assay type: cell-based
# condition context: 72 h, 2nd of four values listed 'respectively', cell line not named
property measured: IC50 (mM)
Numbers only here, please. The scale is mM.

Please give the measured IC50 for this compound: "C#CCCN(C)C(=N)NC(=N)N"
4.7
